Entries below carry reported pIC50 on C-X-C chemokine receptor type 1 (Homo sapiens, UniProt P25024).
Sequence (P25024 whole entry): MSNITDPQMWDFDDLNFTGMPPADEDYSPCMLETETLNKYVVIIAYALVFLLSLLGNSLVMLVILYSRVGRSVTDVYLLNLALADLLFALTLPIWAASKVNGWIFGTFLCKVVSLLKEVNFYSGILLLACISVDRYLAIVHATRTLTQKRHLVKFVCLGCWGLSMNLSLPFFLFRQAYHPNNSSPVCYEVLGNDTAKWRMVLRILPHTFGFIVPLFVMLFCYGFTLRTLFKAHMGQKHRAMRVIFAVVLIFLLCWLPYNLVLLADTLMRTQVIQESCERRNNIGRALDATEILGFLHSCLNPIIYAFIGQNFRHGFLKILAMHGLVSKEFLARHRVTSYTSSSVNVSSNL
Answers are plain numbers, as −log10 of the molar value.

These recorded examples may help you get a feel for the data.
[
  {
    "compound": "CC[C@@H](Nc1c(Nc2cccc(C(=O)N(C)C)c2O)c(=O)c1=O)c1cc(Cl)co1",
    "assayed-system": "C-X-C chemokine receptor type 1 (Homo sapiens, UniProt P25024)",
    "pIC50": 7.21
  },
  {
    "compound": "CCC(Nc1c(Nc2cccc(C(=O)N(C)C)c2O)c(=O)c1=O)c1ccc(-c2cccc(C(F)(F)F)c2)o1 (configuration not stated)",
    "assayed-system": "C-X-C chemokine receptor type 1 (Homo sapiens, UniProt P25024)",
    "pIC50": 5.46
  },
  {
    "compound": "CCC(Nc1c(Nc2cccc(C(=O)N(C)C)c2O)c(=O)c1=O)c1cc(Cl)co1 (configuration not stated)",
    "assayed-system": "C-X-C chemokine receptor type 1 (Homo sapiens, UniProt P25024)",
    "pIC50": 7.00
  },
  {
    "compound": "CCC(Nc1c(Nc2cccc(C(=O)N(C)C)c2O)c(=O)c1=O)c1ccco1 (configuration not stated)",
    "assayed-system": "C-X-C chemokine receptor type 1 (Homo sapiens, UniProt P25024)",
    "pIC50": 7.17
  }
]

// input: 4 compounds below; output: pIC50 for each
1. CCC(Nc1c(Nc2cccc(C(=O)N(C)C)c2O)c(=O)c1=O)c1ccc(Cl)o1 (configuration not stated)
2. CCC(Nc1c(Nc2cccc(C(=O)N(C)C)c2O)c(=O)c1=O)c1ccc(C(F)(F)F)o1 (configuration not stated)
3. CCC(Nc1c(Nc2cccc(C(=O)N(C)C)c2O)c(=O)c1=O)c1cccs1 (configuration not stated)
4. CCC(Nc1c(Nc2cccc(C(=O)N(C)C)c2O)c(=O)c1=O)c1occc1Br (configuration not stated)

1. 6.56
2. 5.22
3. 6.75
4. 5.99

Taken from ChEMBL document CHEMBL1141493.
